# target.of.assay: Cytochrome P450 11B1, mitochondrial (Homo sapiens)
# Sequence (P15538 whole entry): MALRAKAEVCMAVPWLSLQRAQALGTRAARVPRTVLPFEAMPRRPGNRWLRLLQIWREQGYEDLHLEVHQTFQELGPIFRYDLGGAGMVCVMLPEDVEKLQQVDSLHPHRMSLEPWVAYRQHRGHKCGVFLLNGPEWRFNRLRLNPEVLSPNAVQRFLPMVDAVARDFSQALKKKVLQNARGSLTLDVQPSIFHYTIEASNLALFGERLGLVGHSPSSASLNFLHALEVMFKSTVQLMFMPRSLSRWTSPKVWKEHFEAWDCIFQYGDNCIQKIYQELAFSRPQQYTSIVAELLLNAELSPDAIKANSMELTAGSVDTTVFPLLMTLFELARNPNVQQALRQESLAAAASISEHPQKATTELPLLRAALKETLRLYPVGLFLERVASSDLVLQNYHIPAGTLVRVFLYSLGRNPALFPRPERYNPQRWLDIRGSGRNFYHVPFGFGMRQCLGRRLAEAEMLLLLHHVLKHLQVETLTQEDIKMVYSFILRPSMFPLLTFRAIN
# protocol: In vitro inhibitory concentration against human CYP11B1 expressed in V79 MZh hamster fibroblasts incubated with 100 nM of substrate deoxy-corticosterone in presence of the compound
pIC50 values by entry
In simple prose, pIC50 is minus the logarithm base ten of a concentration in moles per litre.

// known answers, use as guide
Fc1ccc2c(c1)CC/C2=C\c1ccncc1 5.96
Brc1ccc2c(c1)CC/C2=C/c1ccncc1 6.32
C/C(=C1/CCc2cc(F)ccc21)c1cccnc1 7.02
Fc1ccc2c(c1)CC/C2=C/c1ccncc1 7.47

From here, focus on the item given below.
The measured pIC50 associated with Clc1ccc2c(c1)CC/C2=C\c1ccncc1 reads 5.82

----------
# Organism: Homo sapiens
# protocol: In vitro IC50 ratio against human CYP11B1 to that of human CYP11B2
Below, each entry is listed with its recorded Selectivity ratio.
Note: the reply should be a number with no unit written.

Reference set, count: 8
Clc1cccc2c1CC/C2=C\c1cccnc1 33.8
Clc1ccc2c(c1)CC/C2=C\c1cccnc1 56.6
Fc1ccc2c(c1)CC/C2=C/c1cccnc1 11.4
C(=C1/CCCc2ccccc21)/c1ccncc1 2
Brc1ccc2c(c1)CC/C2=C/c1cccnc1 1.9
Fc1ccc2c(c1)CC/C2=C\c1cccnc1 44.4
COc1cccc2c1/C(=C/c1cccnc1)CC2 35.4
COc1ccc2c(c1)CC/C2=C/c1cccnc1 30.4

Reported Selectivity ratio for C(=C1/CCc2ccccc21)/c1cccnc1 was 80.7

Measured Selectivity ratio, COc1ccc2c(c1)CC/C2=C\c1cccnc1 : 42.6

# compound Cc1cccc2c1CC/C2=C\c1cccnc1 ; its Selectivity ratio = 7.1

----------
# target.of.assay: Cytochrome P450 11B2, mitochondrial (Homo sapiens, UniProt P19099)
# Sequence (P19099 whole entry): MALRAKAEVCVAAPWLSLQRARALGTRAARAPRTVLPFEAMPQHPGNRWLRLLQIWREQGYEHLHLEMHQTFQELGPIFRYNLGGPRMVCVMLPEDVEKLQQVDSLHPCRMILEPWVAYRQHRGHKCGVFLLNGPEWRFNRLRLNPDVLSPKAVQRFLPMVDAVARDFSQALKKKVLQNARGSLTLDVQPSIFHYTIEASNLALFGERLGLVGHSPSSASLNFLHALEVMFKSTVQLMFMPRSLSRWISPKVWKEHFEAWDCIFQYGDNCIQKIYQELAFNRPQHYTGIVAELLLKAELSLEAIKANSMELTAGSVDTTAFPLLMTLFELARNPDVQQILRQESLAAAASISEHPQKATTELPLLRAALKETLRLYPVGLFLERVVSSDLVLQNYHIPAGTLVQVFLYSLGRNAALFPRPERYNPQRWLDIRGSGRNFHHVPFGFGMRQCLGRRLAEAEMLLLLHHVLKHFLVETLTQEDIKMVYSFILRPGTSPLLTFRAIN
# protocol: In vitro inhibitory concentration against human CYP11B2 expressed in V79MZh hamster fibroblasts incubated with 100 nM of substrate deoxy-corticosterone in presence of the compound
value.type: pIC50
API: returns pIC50 as number; meaning -log10 of concentration in mol/L.

Example entries and their recorded answers appear below.
Fc1ccc2c(c1)CC/C2=C\c1cccc2cnccc12 7.24
COc1cc2c(cc1OC)/C(=C/c1ccncc1)CCC2 7.96
C(=C1/CCCc2ccccc21)/c1cccnc1 7.66
COc1ccc2c(c1)CC/C2=C/c1cncs1 8.30
Fc1ccc2c(c1)CC/C2=C\c1cccc2ncccc12 7.85

pIC50 in this record for COc1ccc2c(c1)/C(=C/c1ccncc1)CC2 : 8.52

Value of pIC50 reported for the molecule COc1ccc2c(c1)CCC/C2=C/c1ccncc1 is 7.25

----------
# target.of.assay: Aromatase (Homo sapiens)
# Sequence (P11511 whole entry): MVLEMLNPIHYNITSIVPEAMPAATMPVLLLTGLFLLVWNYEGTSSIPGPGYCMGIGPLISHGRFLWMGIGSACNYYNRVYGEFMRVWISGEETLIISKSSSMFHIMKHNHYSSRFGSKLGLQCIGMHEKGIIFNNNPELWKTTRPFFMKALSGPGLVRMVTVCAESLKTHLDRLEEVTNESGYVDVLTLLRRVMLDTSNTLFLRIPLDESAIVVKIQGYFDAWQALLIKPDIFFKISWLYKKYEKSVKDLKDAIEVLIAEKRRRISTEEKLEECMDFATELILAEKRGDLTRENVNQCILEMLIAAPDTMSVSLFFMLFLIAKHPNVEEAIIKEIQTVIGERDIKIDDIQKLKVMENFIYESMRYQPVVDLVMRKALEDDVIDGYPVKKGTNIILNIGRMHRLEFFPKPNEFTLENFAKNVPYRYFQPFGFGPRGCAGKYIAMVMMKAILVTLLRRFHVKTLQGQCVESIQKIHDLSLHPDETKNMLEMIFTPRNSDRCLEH
# protocol: In vitro inhibitory concentration against human placental CYP19 incubated with 500 nM of substrate androstenedione in presence of the compound
Each entry below carries its recorded pIC50.
Interpret pIC50 as the negative base-10 log of the concentration measured in mol/L.

Here are 6 compounds together with their reported answers.
COc1ccc2c(c1)CC/C2=C\c1cncs1 5.36
Clc1ccc2c(c1)CC/C2=C/c1ccncc1 5.70
COc1ccc2c(c1)CCC/C2=C/c1ccncc1 6.00
COc1ccc2c(c1)CCC/C2=C\c1ccncc1 6.10
Cc1ccc2c(c1)/C(=C/c1ccncc1)CC2 5.89
COc1ccc2c(c1)CC/C2=C/c1cncs1 5.32

response.value for Brc1ccc2c(c1)CC/C2=C/c1ccncc1 (field: pIC50) = 5.47

Consider Cc1ccc2c(c1)/C(=C/c1cccnc1)CC2 . Its measured pIC50 is 5.41

Looking up C(=C1\CCc2ccccc21)/c1cccnc1 , I see its pIC50 listed as 5.45

----------
# target.of.assay: Cytochrome P450 11B2, mitochondrial (Homo sapiens)
# protocol: In vitro inhibition of human CYP11B2 expressed in Schizosaccharomyces pombe incubated with 100 nM of substrate deoxy-corticosterone in presence of 500 nM of compound
Reported values of inhibition at 0.5 µM for individual entries
Report the figure along with its unit, number first.

compound	value.type	measured.value
COc1ccc2c(c1)/C(=C\c1ccncc1)CC2	inhibition at 0.5 µM	24%
Cc1ccc2c(c1)/C(=C/c1cccnc1)CC2	inhibition at 0.5 µM	27%
Clc1ccc2c(c1)CC/C2=C/c1ccncc1	inhibition at 0.5 µM	37%
COc1ccc2c(c1)/C(=C/c1cccnc1)CC2	inhibition at 0.5 µM	29%
C(=C1/CCc2cc(OCc3ccccc3)ccc21)/c1cccnc1	inhibition at 0.5 µM	0%
Fc1ccc2c(c1)CC/C2=C/c1ccnc2ccccc12	inhibition at 0.5 µM	0%
Fc1cccc2c1CC/C2=C/c1cccnc1	inhibition at 0.5 µM	40%
COc1ccc2c(c1)CC/C2=C\c1cncs1	inhibition at 0.5 µM	18%

Tested on Cytochrome P450 11B2, mitochondrial (Homo sapiens): Fc1ccc2c(c1)CC/C2=C/c1cccc2ncccc12 . Observed inhibition at 0.5 µM: 0%

Cytochrome P450 11B2, mitochondrial (Homo sapiens) data for Cc1ccc2c(c1)/C(=C/c1ccncc1)CC2 ; its inhibition at 0.5 µM: 41%

Item C(=C1c2ccccc2-c2ccccc21)c1cccnc1 was tested on Cytochrome P450 11B2, mitochondrial (Homo sapiens); the reported inhibition at 0.5 µM is 0%

Form field, inhibition at 0.5 µM with Cytochrome P450 11B2, mitochondrial (Homo sapiens), item C(=C1c2ccccc2-c2ccccc21)c1ccncc1 : 6%

Test item C(=C(c1ccccc1)c1ccccc1)c1cccnc1 ; Cytochrome P450 11B2, mitochondrial (Homo sapiens); reported inhibition at 0.5 µM was 5%

COc1ccc2c(c1)CC/C2=C/c1cncs1 tested on Cytochrome P450 11B2, mitochondrial (Homo sapiens) gave inhibition at 0.5 µM: 17%

Lab entry: Cytochrome P450 11B2, mitochondrial (Homo sapiens) assay, compound COc1cc2c(cc1OC)/C(=C/c1ccncc1)CCC2 , inhibition at 0.5 µM = 29%

For the compound COc1ccc2c(c1)/C(=C/c1ccncc1)CC2 , the measured inhibition at 0.5 µM on Cytochrome P450 11B2, mitochondrial (Homo sapiens) was 26%

inhibition at 0.5 µM on Cytochrome P450 11B2, mitochondrial (Homo sapiens) for COc1ccc2c(c1)CC/C2=C\c1ccncc1 is 11%

The compound Cc1cccc2c1CC/C2=C/c1cccnc1 on Cytochrome P450 11B2, mitochondrial (Homo sapiens): inhibition at 0.5 µM was 12%

Measured inhibition at 0.5 µM for this entry Cc1ccc2c(c1)/C(=C\c1cccnc1)CC2 on Cytochrome P450 11B2, mitochondrial (Homo sapiens): 43%

I looked up CC1C/C(=C\c2cccnc2)c2ccccc21 (configuration not stated) and its inhibition at 0.5 µM for Cytochrome P450 11B2, mitochondrial (Homo sapiens) was 47%

# lookup: Fc1ccc2c(c1)CC/C2=C/c1cncnc1 on Cytochrome P450 11B2, mitochondrial (Homo sapiens), inhibition at 0.5 µM = 14%

Entry Fc1ccc2c(c1)CC/C2=C\c1ccnc2ccccc12 : inhibition at 0.5 µM on Cytochrome P450 11B2, mitochondrial (Homo sapiens) = 0%

----------
Each entry below carries its reported Selectivity ratio.
# Species: Homo sapiens
# protocol: In vitro IC50 ratio against human CYP11B1 to that of human CYP11B2

A selection of reference data follows.
Brc1ccc2c(c1)CC/C2=C\c1ccncc1 0.4
Brc1ccc2c(c1)CC/C2=C/c1ccncc1 1.8
Fc1ccc2c(c1)CC/C2=C\c1ccncc1 0.3
C/C(=C1/CCc2cc(F)ccc21)c1cccnc1 1.7
Fc1ccc2c(c1)CC/C2=C\c1cccc2cnccc12 19.5
Clc1cccc2c1CC/C2=C/c1cccnc1 21.1

Looking up C(=C1\CCCc2ccccc21)/c1cccnc1 , I found its Selectivity ratio recorded as 10.1

Value of Selectivity ratio reported for the molecule Fc1ccc2c(c1)CC/C2=C\c1cncnc1 is 118

Entry Fc1ccc2c(c1)CC/C2=C/c1ccncc1 — recorded Selectivity ratio = 7.6
